Recorded IC50 for the following compounds
System: SK-OV-3 (ATCC HTB 77): human ovarian adenocarcinoma
Experiment: In vitro antitumor activity, MTT assay, SK-OV-3
Assay type: cell-based
Details: Homo sapiens, SK-OV-3, Table 3, 48 hrs
Method: In vitro antitumor activity against human tumor cell lines In vitro antitumor activity of the compounds according to the present invention was determined by MTT assay method against the following human tumor cell lines: SK-OV-3 (ATCC HTB 77): human ovarian adenocarcinoma In this test, the known antineoplastic compounds, Doxorubicin and Sulofenur, were used as the comparative agents. […]
Give a bare numeral; the unit µg/mL is implied.

Observe how each entry below is paired with its result.
[
  {
    "Compound": "Nc1ccc(NC(=O)N2CCc3cc(S(=O)(=O)N4CC(c5ccccc5)NC4=O)ccc32)cc1 (stereo not shown) [Example 35]",
    "Test readout": "IC50",
    "Test value": 0.763
  },
  {
    "Compound": "CC(C)NC(=O)N1CCc2cc(S(=O)(=O)N3CC(c4ccccc4)NC3=O)ccc21 (stereo not shown) [Example 31]",
    "Test readout": "IC50",
    "Test value": 0.28
  }
]

Task: # lookup: IC50 of COc1ccc(NC(=O)N2CCc3cc(S(=O)(=O)N4CC(c5ccccc5)NC4=O)ccc32)cc1 (stereo not shown) [Example 36]
Result: 0.047

Task: # lookup: IC50 of CCCNC(=S)N1CCc2cc(S(=O)(=O)N3CC(c4ccccc4)NC3=O)ccc21 (stereo not shown) [Example 40]
Result: 3.66
